Value source: ChEMBL document CHEMBL1201862

test: Luminescence Cell-Based Dose Confirmation HTS to Identify Activators of 5'UTR Stem-Loop Driven Alpha-Synuclein mRNA Translation in H4 Neuroglioblastoma Cells. [Related pubchem assays: 1829 (Project Summary), 1814 (Primary HTS)]; assay type: functional
The source made the active and inactive calls.
Record form. Attribute: EC50. Fill in for each entry.

Record CCN1CCN(C(CNC(=O)c2ccc3c(c2)OCO3)c2cccnc2)CC1 (centres undefined) . Reported EC50: > 120 µM (not active)

Record `COc1c2c(cc3oc(=O)c4c5ccc(O)cc5oc4c13)OC(C)(C)CC2` . Reported EC50: 0.274 µM (active)

Record `CCSc1nsc(NC(=O)Nc2ccccc2F)n1` . Reported EC50: 0.283 µM (active)

Record `CCO[C@@H]1OC(C(=O)NCc2nc3ccccc3[nH]2)=C[C@H](C2CC2)[C@H]1CCCO` . Reported EC50: > 120 µM (not active)

###

Molecular target: Leucine aminopeptidase (Plasmodium falciparum 3D7, UniProt Q8IL11)
Sequence (Q8IL11 whole entry): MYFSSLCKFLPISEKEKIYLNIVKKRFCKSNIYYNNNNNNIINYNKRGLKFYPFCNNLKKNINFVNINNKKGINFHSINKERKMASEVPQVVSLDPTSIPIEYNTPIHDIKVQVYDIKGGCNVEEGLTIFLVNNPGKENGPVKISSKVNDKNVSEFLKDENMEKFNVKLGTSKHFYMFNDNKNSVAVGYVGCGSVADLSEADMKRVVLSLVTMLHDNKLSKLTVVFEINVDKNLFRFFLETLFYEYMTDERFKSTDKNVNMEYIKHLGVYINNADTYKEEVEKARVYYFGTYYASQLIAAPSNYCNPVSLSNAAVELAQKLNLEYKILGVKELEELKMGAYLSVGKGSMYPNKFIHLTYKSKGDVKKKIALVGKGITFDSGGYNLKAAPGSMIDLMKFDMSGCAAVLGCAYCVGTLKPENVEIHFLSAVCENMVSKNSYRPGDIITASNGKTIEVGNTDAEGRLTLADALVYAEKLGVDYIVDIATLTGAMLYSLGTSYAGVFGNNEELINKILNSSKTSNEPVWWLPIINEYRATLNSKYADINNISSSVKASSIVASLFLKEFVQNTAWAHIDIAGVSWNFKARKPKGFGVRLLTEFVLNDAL
Experiment: P. falciparum M17LAP inhibitors, primary screen, biochemical, fluorogenic H-Leu-NHMec substrate, 1536-well (AID 1619)
Type: functional
The source made the active and inactive calls.
Record form. Attribute: IC50. Fill in for each entry.

Record `Cc1cccc(C)c1NC(=O)CSc1ncnc2nc[nH]c12` . Reported IC50: 39.9 µM (active)

Record `O=C(CSc1nnc[nH]1)Nc1ccc2c(c1)OCCO2` . Reported IC50: 64.9 µM (active)

Record CC1CC(=O)N(CC(=O)Nc2ccc3c(c2)OCO3)c2ccccc2S1 (centres undefined) . Reported IC50: 21.9 µM (active)

Record `COc1ccccc1N1CCN(C(=O)CSc2nc(-c3ccccc3)cc(=O)[nH]2)CC1` . Reported IC50: 16 µM (active)

###

Record form. Attribute: IC50. Fill in for each entry.
target: Large T antigen (Simian virus 40, UniProt P03070); type: functional, Betapolyomavirus macacae;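 further: Confirmatory-stage PubChem screen for compounds that inhibit SV40 T antigen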
Sequence (P03070 whole entry): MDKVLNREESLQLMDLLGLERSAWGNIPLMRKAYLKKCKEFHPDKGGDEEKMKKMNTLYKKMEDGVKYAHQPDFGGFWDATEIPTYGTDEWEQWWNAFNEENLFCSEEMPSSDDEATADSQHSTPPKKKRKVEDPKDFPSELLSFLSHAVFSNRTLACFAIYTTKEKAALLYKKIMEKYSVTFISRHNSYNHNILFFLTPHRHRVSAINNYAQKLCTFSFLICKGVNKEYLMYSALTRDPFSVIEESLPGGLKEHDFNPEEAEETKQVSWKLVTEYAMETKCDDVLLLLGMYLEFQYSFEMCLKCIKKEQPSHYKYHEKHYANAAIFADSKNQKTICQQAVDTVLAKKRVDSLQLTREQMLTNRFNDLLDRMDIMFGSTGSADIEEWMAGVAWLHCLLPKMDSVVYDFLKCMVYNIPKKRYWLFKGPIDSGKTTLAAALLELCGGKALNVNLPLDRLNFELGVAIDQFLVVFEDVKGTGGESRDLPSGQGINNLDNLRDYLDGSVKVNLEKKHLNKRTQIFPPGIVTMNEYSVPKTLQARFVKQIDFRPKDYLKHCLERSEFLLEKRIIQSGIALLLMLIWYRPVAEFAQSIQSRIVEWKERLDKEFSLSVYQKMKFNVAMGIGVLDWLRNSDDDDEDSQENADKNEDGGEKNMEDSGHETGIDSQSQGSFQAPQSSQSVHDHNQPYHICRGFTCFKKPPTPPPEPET
The source made the active and inactive calls.

Record `COc1ccc(/C=C2/C(=O)N(Cc3ccco3)C(=O)N(C(C)C)C2=O)cc1` . Reported IC50: 80.6 µM (active)

Record `CCS(=O)(=O)c1ncc(Cl)c(C(=O)Nc2ccc(S(=O)(=O)N3CCC(C)CC3)cc2)n1` . Reported IC50: 52.5 µM (active)

Record `O=c1cc(CN2CCN(Cc3ccccc3)CC2)c2ccc(O)c(O)c2o1` . Reported IC50: 4.91 µM (active)

Record `CC1(C)C(/C=C/C=C/C=C/C=C2\N(CCCCS(=O)(=O)O)c3ccc4ccccc4c3C2(C)C)=[N+](CCCCS(=O)(=O)[O-])c2ccc3ccccc3c21` . Reported IC50: 2.1 µM (active)

Record `COc1cc(C=C2C(=O)c3ccccc3C2=O)ccc1O` . Reported IC50: 15.1 µM (active)

Record `O=C(N/N=C/c1ccc(O)c(O)c1)c1cccc(S(=O)(=O)N2CCCC2)c1` . Reported IC50: 4.72 µM (active)

Record `CCCCNC(=O)c1sc(=S)n2c1[nH]c(=O)c1ccccc12` . Reported IC50: 79.6 µM (active)
